# System: PC-3
# METHOD DESCRIPTION: Antiproliferative activity against human PC3 cells
# Format: functional, cell-based
OBSERVED PROPERTY: IC50 (nM)
Answer in nM, number only, no unit symbol.

Form field, IC50 with PC-3, item CCn1c2ccccc2c2cc(S(=O)(=O)Nc3ccc(OC)nc3OC)ccc21 : 603
